Cited source: PubChem BioAssay

Listed here are compounds together with their documented composite z-score.
- Tested on: Noggin (protein binding on small-molecule microarray)
- testDetails: Noggin binders on small-molecule microarray, primary screen, biochemical, 635/667 nm fluorescence (AID 1095);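 further: score merges 667 nm feature fluorescence with signal to noise over triplicate slides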
- conditionContext: 635 nm fluorescence, higher = more signal
measurementType: composite z-score

1. CCCCC(=C=CC[C@@H](O)c1ccccc1OCCO)C[C@@H](O)COCc1ccccc1; 0.404
2. C=CCC(OC(C)=O)[C@@H]1[C@@H](N(Cc2cc3ccccc3o2)C(=O)Cc2ccc(F)cc2)c2cc(OCCCO)ccc2N1C(=O)c1ccc2ccccc2c1 (some centres undefined); 0.437
3. O=C1O[C@@H](c2ccccc2)[C@@H](c2ccccc2)N2[C@@H](c3ccc(O)cc3)[C@]3(C(=O)Nc4ccc(C#CC5(O)CCCCCC5)cc43)[C@@H](C(=O)NC[C@H](O)c3ccccc3)[C@H]12; -0.0578
4. CC(C)(C)OC(=O)CC[C@]1(C(=O)NCc2ccccc2)N=C(c2ccc(OCCCO)cc2)O[C@H]1c1ccccc1CN=[N+]=[N-]; 1.2
5. C=C(CCCC)/C(=C/C[C@@H](OC(=O)c1ccncc1)c1ccccc1OCCO)c1cnc2ccccc2c1; 1.9
6. COc1ccc(C(O)C2C=CC3C(=O)N(c4ccccc4)C(=O)C3N2Nc2ccc([N+](=O)[O-])cc2)cc1 (centres undefined); 0.0062
7. CC(C)(C)N1CC=CC23O[C@@H]4C=CCCOC(=O)C4[C@H]2C(=O)N(CCO)[C@@H]3C1=O (some centres undefined); -0.365
8. CO[C@H]1O[C@H](CO)[C@@H](OC(=O)Nc2ccccc2-c2ccccc2)[C@H](OC(=O)Nc2ccc3c(c2)OCO3)[C@H]1OC(=O)Nc1ccc2c(c1)OCO2; 0.852
9. Cc1ccccc1C(O)C1C=CC2C(=O)N(C)C(=O)C2N1N(c1ccccc1)c1ccccc1 (centres undefined); -0.177
10. COCCOC(=O)N1C(=O)[C@@]2(c3cc(C#CC4=CCCCC4)ccc31)[C@H](c1ccc(OCCO)cc1)N1[C@H](c3ccccc3)[C@H](c3ccccc3)OC(=O)[C@H]1[C@@H]2C(=O)N1CCN(c2ncccn2)CC1; 0.788
11. CC(C)[Si](C#C[Si](C(C)C)(C(C)C)C(C)C)(O[C@H](C)c1cn([C@H](CO)Cc2ccccc2)nn1)C(C)C; -0.0066
12. NC(=O)NCC#Cc1ccc2c(c1)[C@]1(C(=O)N2)[C@H](C(=O)O)[C@H]2C(=O)O[C@H](c3ccccc3)[C@H](c3ccccc3)N2[C@@H]1c1ccc(OCCO)cc1; 0.205
13. CCCC[C@@H]1C[C@H]1[C@@H](NC(=O)Cc1ccccc1)c1ccc(-c2ccccc2)cc1; -0.219
14. CCCCC=C[C@@H](NC(=O)c1ccc(-c2ccccc2)cc1)c1ccccc1; -0.323
